# PROCEDURE DETAILS: in vitro
# RUN CONDITIONS: human, hela cells, % viability
READOUT LABEL: viability at 28.5 h, 10 µM (%)
Use % as the unit, but write only the number.

Example entries and their recorded answers appear below.
COc1ccc2c(c1)C1(CC(=O)N(C)C1=O)C(=O)N2C (stereo not drawn) = 115
Cc1ccc(OC(C)c2nc(-c3nonc3N)no2)cc1C (stereo not drawn) = 92.4
Cc1ccc2c(C)c(C(=O)Nc3ccc(S(N)(=O)=O)cc3)oc2c1 = 110
O=C(NC(Sc1ncccn1)C(=O)c1ccccc1)c1ccccc1 (stereo not drawn) = 95.5
Cc1nc(CNCc2c(C(C)C)nn(C)c2N(C)C)cs1 = 109

Query: I have this molecule here, c1ncc(N2CCCC2)nc1OCCN1CCOCC1 , and I need its recorded viability at 28.5 h, 10 µM.
Result: 89.1

Query: Also check C=C(C)Cn1c(SCC(C)C)nnc1-c1ccc(F)cc1
Result: 99.9

Query: Ok, now CCOc1ccccc1-c1nnc(SCC(=O)NC2CCCCC2)o1
Result: 106

Query: Query CNCCCC1(c2ccccc2)SC(C)(C)c2ccccc21 (stereo not drawn) [CBK015933C] next
Result: 90.6

---

# PROCEDURE DETAILS: in vitro
# RUN CONDITIONS: human, hela cells, % viability
READOUT LABEL: viability at 28.5 h, 10 µM (%)
Expressed in %, but write only the number.

Consider the worked cases shown below.
Cc1nc(C)c(CC(=O)N(C)CC2OCCc3ccccc32)s1 (stereo not drawn) [CBK281478] = 90.9
CCN(CC)CCN(Cc1ccc2c(c1)OCO2)C(=O)Nc1ccc2[nH]ccc2c1 [CBK159037] = 96.7
CCOc1ccc(-c2ccnc(N3CCC(N(C)C)C3)n2)cc1C(=O)O (stereo not drawn) [CBK307241] = 95
O=C(Cc1csc(-c2ccc(Cl)cc2)n1)N1CCN(c2ccccn2)CC1 [CBK107310] = 97
Cc1ccc(NS(=O)(=O)c2ccc(NC(=O)c3ccc(CN4CCOCC4)cc3)cc2)c(C)c1 [CBK264815] = 94.5

Let's switch to this compound now.
Query: viability at 28.5 h, 10 µM for CCn1nc(C)c(CN(C)C(=O)C2CC=CCC2C(=O)O)c1C (stereo not drawn) [CBK286884] ?
Result: 86.1

---

# PROCEDURE DETAILS: in vitro
# RUN CONDITIONS: human, hela cells, % viability
Label yes (1) when viability at 28.5 h, 10 µM is strictly below 90%; at or above that, label no (0).

Record excerpt, results attached:
CN(C)C(=O)c1cc(Br)cnc1NCCCn1ccnc1 = no (0)
COC(=O)c1cc(S(N)(=O)=O)c(C)o1 = no (0)
COc1ccc(-c2n[nH]c(=S)n2CCC(=O)NCCc2cc(C)n(-c3ccccc3)c2C)cc1 = no (0)
CN(C(=O)Cn1cc(C(=O)NCC(C)(C)c2ccc(F)cc2)ccc1=O)c1ccccc1 = no (0)
CCc1nn(CC(=O)OC(C)C)c(=O)c2cc3sccc3n12 = yes (1)
Cc1nnc(SCCn2c(N3CC(C)CC(C)C3)nc3c2c(=O)n(C)c(=O)n3C)s1 (centres unmarked) = no (0)
Cc1cnn(CC(=O)NC(Cc2ccsc2)c2nc(C)cs2)c1 (centres unmarked) = yes (1)
COCCCn1c(=O)[nH]c2ncc(-c3cccc(C(=O)NCCO)c3)nc21 = no (0)

Query: Please determine if Cc1ccc(NS(=O)(=O)N(C)C)c(C)c1 is below 90% in terms of viability at 28.5 h, 10 µM.
Result: no (0)

Query: Also N#C/C(=C\c1ccc(OCC(=O)c2ccccc2)cc1)c1nc(-c2cccs2)cs1 , if possible.
Result: no (0)

Query: Quick one: c1coc(CNc2ncc(-c3ccc(N4CCOCC4)cc3)n3ccnc23)c1
Result: no (0)

Query: And then c1ccc2cc(-c3cn4ccnc4c(Nc4ccc(N5CCOCC5)cc4)n3)ccc2c1 , what is it?
Result: no (0)

Query: Same for O=C(NC1CCS(=O)(=O)C1)/C(=C\c1ccccc1)NC(=O)c1ccc([N+](=O)[O-])cc1 (centres unmarked)
Result: no (0)

---

# viability at 28.5 h, 10 µM annotations
# PROCEDURE DETAILS: in vitro
# RUN CONDITIONS: human, hela cells, % viability
Numeric only. Scale: %

Fc1ccc(-c2c[nH]c([C@@H]3COCCN3Cc3ncc[nH]3)n2)cc1 = 95.5
CCOc1ccccc1OCC(C)CNC (centres unmarked) [CBK026242G] = 120
Cc1ccc(SCCNS(C)(=O)=O)cc1 = 90.8

Query: Entry CN1CCN(C(=O)c2ccccc2NC(=O)c2ccc(C(C)(C)C)cc2)CC1 : reported viability at 28.5 h, 10 µM = ?
Result: 93.4

Query: Next: COc1ccc(CCNC(=O)CCn2nc(C)c(Cl)c2C)cc1C
Result: 89.5

Query: Follow-up item: COc1ccc(OC)c(S(=O)(=O)N2CCC(C(=O)O)CC2)c1
Result: 83.5

Query: Do the same for Cc1cc(Br)ccc1S(=O)(=O)Nc1nc(-c2c(F)cccc2Cl)cs1 please
Result: 95.6

Query: Moving on to COc1ccc(Cc2nc(C3CCC3)n(CC3COCCO3)n2)cc1 (centres unmarked)
Result: 87.8

Query: Would you mind doing CCCNC(=O)N1CCC(n2cnc3cccnc32)CC1 as well?
Result: 84.3

Query: Again, but for CCNc1cc(-c2ccc(Cl)cc2)ncn1
Result: 99

Query: Similarly, Cc1csc(-c2ccc(C(=O)N(C)CCN(C)C)c(N(C)C)n2)c1 ?
Result: 94.1

---

# PROCEDURE DETAILS: in vitro
# RUN CONDITIONS: human, hela cells, % viability
viability at 28.5 h, 10 µM values by entry
Write the number in % without appending the unit.

CN1C[C@@H](C(=O)NC(C)(C)C)[C@@]2(CCc3ccccc3C(=O)N2)C1 [CBK284796] = 99
CCN1CCOC(CNc2ncnc3c2CCC3)C1 (centres unmarked) [CBK304811] = 106

Query: If you can, please state the reported viability at 28.5 h, 10 µM value of Cc1ocnc1C(=O)NCC1CCN(c2ccccc2F)C1 (centres unmarked) [CBK304671] .
Result: 92.6

Query: Another: O=C(CSc1nc2[nH]ncc2c(=O)n1-c1ccccc1)Nc1nsc(-c2ccccc2)n1 [CBK266486]
Result: 101

Query: Further, for O=C1O[C@@H](CO)CN1c1ccc(N(Cc2ccccc2)Cc2ccccc2)c(F)c1 [CBK016873] ?
Result: 103

Query: Okay, and COc1cccc(CCN2CCC(C(=O)NC(c3ccc(F)cc3)c3nc(OC)cc(OC)n3)CC2)c1 (centres unmarked) [CBK148089] ?
Result: 92.2

Query: // next record CS(=O)(=O)c1ccc(CNC(=O)c2cc(-c3ccc(C(=O)N4CCOCC4)cc3)cnc2N)cc1 [CBK158599]
Result: 93

Query: Further, for COc1nccnc1OC1CCN(Cc2ccc(Cl)cc2)CC1 [CBK084240] ?
Result: 98.7

Query: Also check COC(=O)c1ccc(SCc2nc(N3CCOCC3)c3c(c2C#N)CC(C)(C)OC3)o1 [CBK019077]
Result: 114

Query: Field entry: c1ccc(CNCc2nc(-c3ccccc3)no2)cc1 [CBK024404]
Result: 99.1

Query: Next compound: Cc1nc(-c2ccccc2)nc2c1c(N)nn2CC(=O)O [CBK287109]
Result: 95.1

Query: Proceed to CCN(CC)CC(O)Cn1ccc(-c2cccs2)n1 (centres unmarked) [CBK005967]
Result: 88.7

Query: What do we get for Cc1cccc2cc(/C=C(\C#N)c3nc(-c4cc5ccccc5oc4=O)cs3)c(Cl)nc12 [CBK261642] ?
Result: 85.4

Query: Consider next the compound Cc1c(F)cccc1CNCC1CCN(C(=O)OC(C)(C)C)CC1 [CBK056717] in the same way.
Result: 85.7

---

# PROCEDURE DETAILS: in vitro
# RUN CONDITIONS: human, hela cells, % viability
READOUT LABEL: viability at 28.5 h, 10 µM (%)
Output spec: scalar in %, unitless text.

O=c1[nH]cnc2c1ncn2[C@@H]1O[C@H](CO)[C@H](O)C1O (stereo partly drawn) = 98.3
O=C(O)CC(NCc1ccccc1)C(=O)Nc1ccccc1Br (stereo not drawn) = 98

Then this compound:
Query: Which viability at 28.5 h, 10 µM value belongs to O=S(=O)(NCCc1ccncc1)c1ccc(Cl)c(Cl)c1 ?
Result: 97.9

---

# PROCEDURE DETAILS: in vitro
# RUN CONDITIONS: human, hela cells, % viability
READOUT LABEL: viability at 28.5 h, 10 µM (%)
I only need the number, in %, no unit after it.

O=C1CCc2cc(S(=O)(=O)Nc3ccccc3-c3ccccc3)ccc2N1 = 92.6

Query: Entry Cn1c(Cc2ccccc2)nnc1SCC(=O)Nc1ccc(N2CCOCC2)cc1 has what viability at 28.5 h, 10 µM?
Result: 89.8

Query: Similarly, CCc1noc(C)c1C(=O)N1CC[C@@H](CNC(=O)N2CCCC2)[C@H](O)C1 ?
Result: 88.3

Query: // repeat for CC(C)(C)OC(=O)NCCCn1cc(C(=O)O)nn1 and report
Result: 90.4
